System: Rattus norvegicus
experimental details: Antiinflammatory activity in Wistar rat assessed as inhibition of carrageenan-induced paw oedema at 25 mg/kg, po administered 1 hr prior to carrageenan challenge
Format: functional
quantity: inhibition in vivo at 25 mg/kg (%)

1) CCc1nnc2c(C(=O)N(CC)CC)c(N3CCN(C)CC3)c3cccnc3n12; 22
2) CCCNC(=O)c1c(NC(C)C)c2cccnc2n2c(C(C)C)nnc12; 70
3) CCNC(=O)c1c(NC(CC)CC)c2cccnc2n2c(C(C)C)nnc12; 30
4) CCN1CCN(c2c(C(=O)N(CC)CC)c3nnc(C(C)C)n3c3ncccc23)CC1; 36
5) CC(C)NC(=O)c1c(NC(C)C)c2cccnc2n2c(C(C)C)nnc12; 9
6) CCNC(=O)c1c(NC(C)C)c2cccnc2n2c(C(C)C)nnc12; 57
